# ASSAY_PROTOCOL: solvent given as SMILES
# EXPERIMENTAL_PARAMETERS: in O
TEST_READOUT: absorption maximum (nm)
Number in nm, nothing else.

// solved cases for absorption maximum follow
COMPOUND | absorption maximum [nm]
CC[N+]1(CC)CN2C(=N1)C(C(=O)O)=Cc1cc(C)ccc12 | 379
CC[N+](CC)=c1ccc2c(-c3ccccc3C(=O)O)c3oc4cc(N)ccc4c3oc-2c1 | 581
O=C([O-])c1ccc(C(=O)[O-])c(C2=c3cc4c5c(c3Oc3c2cc2c6c3CCCN6CCC2)CCC[N+]=5CCC4)c1 | 574

So for Cc1ccc(N(C)C)cc1C1=C2C=CC(=[N+](C)C)C=C2[Si](C)(C)c2cc(N(C)C)ccc21 , the logged absorption maximum turned out to be 646

So for CC[N+]1(CC)CN2C(=N1)C(C(=O)O)=Cc1c2ccc2ccccc12 , the logged absorption maximum turned out to be 406

So for Cc1c2oc3c(C)c(N)cc(C(=O)NC4OC(=O)C(C(C)C)N(C)C(=O)CN(C)C(=O)C5CCCN5C(=O)C(C(C)C)NC4=O)c3nc-2c(C(=O)NC2OC(=O)C(C(C)C)N(C)C(=O)CN(C)C(=O)C3CCCN3C(=O)C(C(C)C)NC2=O)c(N)c1=O (configuration not stated) , the logged absorption maximum turned out to be 514.17

So for CCn1c2ccc(S(=O)(=O)O)cc2c(=O)c2cc3c(cc21)c(=O)c1cc(S(=O)(=O)O)ccc1n3CCCCCC(=O)O , the logged absorption maximum turned out to be 536
